Reference source for all entries: the supplement of paper PMC11061612

# Tested on: NCI-H1155 (Non-Small Cell Lung Carcinoma)
# experiment_notes: combination Emax (second highest fraction inhibited in the dose matrix, 72 h); higher = more inhibition; extreme values may be limits of the assay
observable: combination Emax
Keep the answer to the number alone.

compound="NC1(C(=O)N[C@@H](CCO)c2ccc(Cl)cc2)CCN(c2ncnc3[nH]ccc23)CC1 [Capivasertib] + CCN(CCO)CCCOc1ccc2c(Nc3cc(CC(=O)Nc4cccc(F)c4)[nH]n3)ncnc2c1 [AZD2811] (first compound max 10 µM, 7x7, partner max 1 µM)" system_under_test="NCI-H1155 (Non-Small Cell Lung Carcinoma)" recorded_result=0.864

Next compound, please.
So, Cn1cnc2c(F)c(Nc3ccc(Br)cc3Cl)c(C(=O)NOCCO)cc21 [Selumetinib] + CCN(CCO)CCCOc1ccc2c(Nc3cc(CC(=O)Nc4cccc(F)c4)[nH]n3)ncnc2c1 [AZD2811] (first compound max 10 µM, 7x7, partner max 1 µM) ? Its combination Emax was 0.674

----------
# Test system: CML-T1 (Chronic Myelogenous Leukemia);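 further: after 72 h of two-drug dosing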
# experiment_notes: Bliss excess, mean over the matrix (fraction); higher = more synergy
observable: Bliss excess
Keep the answer to the number alone.

molecule="COc1nnc2ccc(N3CCC(c4ccc(OCCN5CCN(C)C(=O)[C@H]5C)cc4)CC3)nn12 [AZD5153] + Cc1c2c(nn1C)CSCc1cc(n(C)n1)CSc1cc(c3ccccc3c1)OCCCc1c(C(=O)O)n(C)c3c-2c(Cl)ccc13 [AZD5991] (first compound max 1 µM, 7x7, partner max 1 µM)" recorded_result=0.0065
molecule="COc1cccc(OCCCN)c1-c1cc(Nc2cnc(C#N)cn2)n[nH]1 [Prexasertib] + O=C(c1cc(Cc2n[nH]c(=O)c3ccccc23)ccc1F)N1CCN(C(=O)C2CC2)CC1 [Olaparib] (first compound max 1 µM, 7x7, partner max 10 µM)" recorded_result=-0.03
molecule="Cc1c2c(nn1C)CSCc1cc(n(C)n1)CSc1cc(c3ccccc3c1)OCCCc1c(C(=O)O)n(C)c3c-2c(Cl)ccc13 [AZD5991] + Nc1ccn([C@@H]2O[C@H](CO)[C@@H](O)C2(F)F)c(=O)n1 [Gemcitabine] (first compound max 1 µM, 7x7, partner max 0.3 µM)" recorded_result=-0.0219

Next molecule, please.
Summary line: CC1(C)CCC(CN2CCN(c3ccc(C(=O)NS(=O)(=O)c4ccc(NCC5CCOCC5)c([N+](=O)[O-])c4)c(Oc4cnc5[nH]ccc5c4)c3)CC2)=C(c2ccc(Cl)cc2)C1 [Venetoclax] + Cc1cc2ncnn2cc1Nc1ncc2c(n1)n(C1CCOCC1)c(=O)n2C [AZD7648] (first compound max 1 µM, 7x7, partner max 10 µM) , CML-T1 (Chronic Myelogenous Leukemia), reported Bliss excess = -0.0195

----------
# Test system: EB-3 (Burkitt's Lymphoma)
# experiment_notes: combination Emax (second highest fraction inhibited in the dose matrix, 72 h); higher = more inhibition; extreme values may be limits of the assay
Here the recorded combination Emax is given for each entry.
Keep the answer to the number alone.

// worked examples, combination Emax included
compound="CN(CCO)CC[C@H](CSc1ccccc1)Nc1ccc(S(=O)(=O)NC(=O)c2ccc(N3CCC([C@@H](O)c4ccccc4-c4ccc(Cl)cc4)CC3)cc2)cc1S(=O)(=O)C(F)(F)F [AZD4320] + Nc1ccn([C@@H]2O[C@H](CO)[C@@H](O)C2(F)F)c(=O)n1 [Gemcitabine] (first compound max 1 µM, 7x7, partner max 0.3 µM)" system_under_test="EB-3 (Burkitt's Lymphoma)" observable="combination Emax" recorded_result=0.469
compound="Cc1cc2ncnn2cc1Nc1ncc2c(n1)n(C1CCOCC1)c(=O)n2C [AZD7648] + CN(C)CCCOc1ccc(-c2ccc3ncc4c(c3c2)n(C2CCOCC2)c(=O)n4C)cn1 [AZD0156] (first compound max 10 µM, 7x7, partner max 1 µM)" system_under_test="EB-3 (Burkitt's Lymphoma)" observable="combination Emax" recorded_result=0.585

So, CC1(C)CCC(CN2CCN(c3ccc(C(=O)NS(=O)(=O)c4ccc(NCC5CCOCC5)c([N+](=O)[O-])c4)c(Oc4cnc5[nH]ccc5c4)c3)CC2)=C(c2ccc(Cl)cc2)C1 [Venetoclax] + Cc1cc2ncnn2cc1Nc1ncc2c(n1)n(C1CCOCC1)c(=O)n2C [AZD7648] (first compound max 1 µM, 7x7, partner max 10 µM) ? Its combination Emax was 0.477

So, CN(CCO)CC[C@H](CSc1ccccc1)Nc1ccc(S(=O)(=O)NC(=O)c2ccc(N3CCC([C@@H](O)c4ccccc4-c4ccc(Cl)cc4)CC3)cc2)cc1S(=O)(=O)C(F)(F)F [AZD4320] + C[C@@H]1COCCN1C2=NC(=NC(=C2)C3(CC3)[S@](=N)(=O)C)C4=C5C=CNC5=NC=C4 [AZD6738] (first compound max 1 µM, 7x7, partner max 10 µM) ? Its combination Emax was 0.578

So, C=CCn1c(=O)c2cnc(Nc3ccc(N4CCN(C)CC4)cc3)nc2n1-c1cccc(C(C)(C)O)n1 [AZD1775] + CCc1c2c(nc3ccc(O)cc13)-c1cc3c(c(=O)n1C2)COC(=O)[C@]3(O)CC [SN-38] (first compound max 1 µM, partner max 0.3 µM) ? Its combination Emax was 0.884

So, Cc1cc2ncnn2cc1Nc1ncc2c(n1)n(C1CCOCC1)c(=O)n2C [AZD7648] + COc1cc([C@@H]2c3cc4c(cc3[C@@H](O[C@@H]3O[C@@H]5CO[C@@H](C)O[C@H]5[C@H](O)[C@H]3O)[C@H]3COC(=O)[C@H]23)OCO4)cc(OC)c1O [Etoposide] (first compound max 10 µM, 7x7, partner max 10 µM) ? Its combination Emax was 0.942
